Biological target: Sentrin-specific protease 6 (Homo sapiens) (UniProt Q9GZR1)
Sequence (Q9GZR1 628-1112 limits assumed): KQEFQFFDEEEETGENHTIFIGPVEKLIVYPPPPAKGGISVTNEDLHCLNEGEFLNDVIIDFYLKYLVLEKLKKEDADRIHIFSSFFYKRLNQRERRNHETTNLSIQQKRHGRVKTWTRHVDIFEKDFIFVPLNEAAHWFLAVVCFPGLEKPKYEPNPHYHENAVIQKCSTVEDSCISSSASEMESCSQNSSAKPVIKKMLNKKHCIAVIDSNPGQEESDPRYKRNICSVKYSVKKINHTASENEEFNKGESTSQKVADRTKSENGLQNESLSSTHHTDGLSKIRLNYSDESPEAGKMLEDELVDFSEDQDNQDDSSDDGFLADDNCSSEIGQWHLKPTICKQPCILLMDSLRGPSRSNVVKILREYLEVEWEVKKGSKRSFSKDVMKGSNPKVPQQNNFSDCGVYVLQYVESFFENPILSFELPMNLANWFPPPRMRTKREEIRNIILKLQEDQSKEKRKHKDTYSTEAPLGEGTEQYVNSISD
Assay: SENP6 protease inhibitors, primary screen, biochemical, luminescence, uHTS (AID 2599);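 also: plate controls were DMSO wells with enzyme for no effect and DMSO wells lacking enzyme for full effect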
Conditions: Recombinant SENP6 catalytic domain, aminoluciferin luminescence; at 10 µM
Hit rate of the full screen: of about 330,000 compounds, about 5,800 (1.8%) were called active.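 The calls were made as follows: active = inhibition above about 50% at the single tested dose (limit read from the data); inactive = the rest.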 This excerpt belongs to a sample that is enriched for actives.
The reply should be one of these categories: true (1) = active, false (0) = inactive

Here are 2 compounds together with their reported answers.
Oc1ccccc1-c1cc(-c2ccc(Cl)cc2)n[nH]1; true (1)
COc1ccccc1CCNC(=O)CSc1nnc2ccc(-c3cccnc3)nn12; false (0)

Request: Kindly provide the recorded test outcome for the following compound: "COc1ccc2nc(NC(=O)NC3CCCCC3)sc2c1"
Response: false (0)

Request: Please let me know the test result on file for "O=C(COC(=O)c1n[nH]c2ccccc12)Nc1ccccc1Br" .
Response: false (0)

Request: Test call, this compound: CC(C)(C)CC(C)(C)NCC(O)COCCOc1ccc(Br)cc1 (configuration not stated)
Response: false (0)

----------
Biological target: Sentrin-specific protease 6 (Homo sapiens) (UniProt Q9GZR1)
Test: SENP6 protease inhibitors, primary screen, biochemical, luminescence, uHTS (AID 2599)
Details: Recombinant SENP6 catalytic domain, aminoluciferin luminescence; at 10 µM; hits give high values
The campaign covered roughly 330,000 compounds. About 5,800 (1.8%) were called active. The sample as a whole holds a higher share of actives than the screen did.
property_measured: inhibition (%)
Give the value, in units of %, as a plain number.

Look over these answered cases.
COc1ccc(-c2cn3ccsc3n2)cc1; 64
COc1cc(SC)ccc1C(=O)Nc1cc(C)ccn1; 62.6
CCN1C(=O)c2cccc3c(S(=O)(=O)Nc4ccccc4O)ccc1c23; -9.84
COc1cc(SC)ccc1C(=O)Nc1nc(C)cs1; 97.3
Cc1csc(NC(=O)c2ccc(C)s2)n1; 0.083

Request: For "COC(=O)c1sc(NC(=O)c2ccc(OC)cc2OC)nc1C" , what is its reported inhibition?
Response: 74

Request: Reported inhibition for "CN1C(=O)c2cccc3c(N)ccc(c23)C1=O" : what is it?
Response: -16.2

Request: inhibition lookup needed for "COc1ccc(C(=O)Nc2cccc(NC(=O)c3ccc(OC)cc3OC)n2)c(OC)c1" , thanks.
Response: -18

Request: Need inhibition of COc1cc(SC)ccc1C(=O)NNC(=O)C1COc2ccccc2O1 (configuration not stated) , thanks.
Response: -13.5

Request: // lookup inhibition for "CC(C)CN(C(=O)COC(=O)c1ccc2ccccc2c1)c1c(N)n(Cc2ccccc2)c(=O)[nH]c1=O"
Response: -9.38

Request: Looking for the measured inhibition of "Cc1ccnc(NC(=O)CNC(=O)c2ccccc2)c1" , can you help?
Response: 6.25

Request: May I ask what inhibition has been recorded for "COc1ccc(-c2cn3cccnc3n2)cc1" ?
Response: -11.4

----------
Target: Sentrin-specific protease 6 (Homo sapiens) (UniProt Q9GZR1)
Assay: SENP6 protease inhibitors, primary screen, biochemical, luminescence, uHTS (AID 2599);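 also: plate controls were DMSO wells with enzyme for no effect and DMSO wells lacking enzyme for full effect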
Details: Recombinant SENP6 catalytic domain, aminoluciferin luminescence; at 10 µM; hits give high values
Out of some 330,000 compounds screened, about 5,800 (1.8%) were called active. For the sample, actives were picked, then their nearest neighbours and some compounds at random.
property_measured: inhibition (%)
Please reply with the bare figure in % and do not write the unit itself.

CC(C)CCNC(=O)Cn1c(=O)oc2cc(S(=O)(=O)N3CC(C)CC(C)C3)ccc21 (stereo not given); 2.44
Cc1ccc(C(=O)Nc2ccc3c(c2)OCCO3)cc1S(=O)(=O)N1CCOCC1; 7.66
CC[C@]1(c2ccccc2OC)C(=O)N(C(=O)OC)N1C(=O)OC; 0.734
CCCc1ccc(OCc2ccc(C(=O)N/N=C/c3cccc([N+](=O)[O-])c3)o2)c(OC)c1; -3.27

Let us move to another entry and its inhibition.
Request: I am curious: what inhibition value has been reported for "Oc1ccc(Br)cc1/C=N/Nc1ccccn1" ?
Response: 14.9

----------
Below: a set of entries, each annotated with reported inhibition.
Target: Sentrin-specific protease 6 (Homo sapiens) (UniProt Q9GZR1)
Assay: SENP6 protease inhibitors, primary screen, biochemical, luminescence, uHTS (AID 2599);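 also: plate controls were DMSO wells with enzyme for no effect and DMSO wells lacking enzyme for full effect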
Conditions: Recombinant SENP6 catalytic domain, aminoluciferin luminescence; at 10 µM; hits give high values
The campaign covered roughly 330,000 compounds. About 5,800 (1.8%) were called active. The full list was thinned out, with actives kept by preference.
Field format: number, assumed %, no unit text.

CN(C)S(=O)(=O)c1ccc(N2CCCC2)c(C(=O)Nc2cccc(F)c2)c1; -13.9
COc1ccc(/C=N/OCC(=O)N(Cc2ccccc2)c2ccccc2C(=O)O)cc1; -17.2
COc1ccc(NS(=O)(=O)c2cc(C(=O)Nc3ccccc3C(=O)O)ccc2C)cc1; -2.27
CC(C)OC(=O)C(C#N)c1nc2ccccc2nc1N1CCN(Cc2ccccc2)CC1 (stereo not given); 6.5

Proceeding to the next compound to report its inhibition.
Request: Would you kindly share the measured inhibition for "COc1cc(/C=N/NC(=O)c2ccc(N3CCCC3=O)cc2)ccc1O" ?
Response: -7.53

----------
Biological target: Sentrin-specific protease 6 (Homo sapiens)
Assay: SENP6 protease inhibitors, primary screen, biochemical, luminescence, uHTS (AID 2599);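 also: plate controls were DMSO wells with enzyme for no effect and DMSO wells lacking enzyme for full effect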
Conditions: Recombinant SENP6 catalytic domain, aminoluciferin luminescence; at 10 µM; hits give high values
Hit rate of the full screen: of about 330,000 compounds, about 5,800 (1.8%) were called active. Shown is part of a subset that was picked to be rich in actives.
Given measured inhibition, output yes if it is greater than or equal to 20% and no if not.

Consider the worked cases shown below.
O=C(Nc1cccc2ccccc12)c1onc2c1CCCC2; yes
O=C(O)c1ccccc1-c1ccccc1C(=O)Nc1cccc2ccccc12; no
CC1(C)CC(=O)C2=C(C1)NCN(CCCN1CCOCC1)C2; no
O=C(/C=C/c1ccco1)Nc1ccc(Oc2ccccc2)cc1; yes
CCOC(=O)C(C)N(c1ccccc1Cl)S(C)(=O)=O (centres undefined); no

Request: Item "O=[N+]([O-])c1ccccc1SNc1ccccn1" with inhibition of 20% or above?
Response: no

Request: Reported inhibition reaches at least 20% for COc1cc(/C=C(\C#N)c2nc3c(s2)CC(C)CC3)ccc1O (centres undefined) ?
Response: no

Request: Test whether the molecule "CCc1cccc(C)c1NC(=O)COC(=O)Cc1ccsc1" records inhibition of 20% or higher.
Response: no

Request: Exam item: decide whether the reported inhibition for "COc1ccc(-c2[nH]nc(-c3ccccc3)c2-c2nc3ccccc3[nH]2)cc1" is at least 20%.
Response: no

Request: Check the entry CC1CCC(NC(=O)CNC(=O)c2ccc3ccccc3c2)CC1 (centres undefined) : does inhibition equal or exceed 20%?
Response: no

Request: Textbook exercise: given the entry "Nc1cccc(CCc2nc3ccccc3[nH]2)c1" , state whether its inhibition is greater than or equal to 20%.
Response: no

Request: Is reported inhibition greater than or equal to 20% here: "Cc1cccc(NC(=O)c2ccc3ccccc3n2)n1"
Response: yes

Request: Does inhibition meet or surpass 20% for "N#CCc1c(C#N)c(N)nc(N2CCCC2)c1C#N" ?
Response: no

Request: // inclusive: inhibition at least 20%? input: "CCn1nccc1C(=O)Nc1ccc(Cl)c(Cl)c1"
Response: yes

Request: Would you say "Cc1cc(NC(=O)Nc2ccccc2[N+](=O)[O-])no1" shows inhibition at minimum 20%?
Response: yes

Request: Reported inhibition at or above 20%? "CC1CCN(C(=O)c2ccc(CSc3ccc(Cl)cc3)cc2)CC1"
Response: no

Request: Please tell me: is the molecule Cc1ccc(Cn2ccc(NC(=O)C3C4CCC(C4)C3C(=O)O)n2)cc1 (centres undefined) at or over 20% in terms of inhibition?
Response: no

Request: Record "CCn1c(NC(=O)c2nn(C)cc2Br)nc2ccccc21" ; criterion: inhibition no lower than 20%. Met?
Response: no

Request: Check this molecule for inhibition at or above 20%: "COc1ccc(-c2n[nH]c3c2CN(C(=O)c2ccc(F)cc2)CC3)cc1"
Response: no

Request: Please tell me: is the molecule Cn1cc(CN2CCCC(CO)C2)c(-c2ccc(Oc3ccccc3)cc2)n1 (centres undefined) at or over 20% in terms of inhibition?
Response: no

Request: Identify whether the reported inhibition of the following molecule is 20% or greater: "O=C(Nc1ccn(Cc2ccccc2)n1)c1n[nH]c([N+](=O)[O-])c1Cl"
Response: yes

Request: Would you say "Cc1cccc(NC(=O)c2cccnc2Cl)n1" shows inhibition at minimum 20%?
Response: yes

Request: Assess whether reported inhibition for "COc1ccc(Br)cc1C(=O)NC(=S)Nc1cc(-c2nc3ccccc3[nH]2)ccc1C" sits at 20% or higher.
Response: no

Request: Exam item: decide whether the reported inhibition for "C/C(N)=C(\C#N)C(=O)NCCc1ccccn1" is at least 20%.
Response: no
